# experimentalDetails: Solubility of compound of Chemical Formula 1 in various solvents
# Type: physicochemical
# conditionParameters: organic solvent or mixture; 2-Methyltetrahydrofuran (2-MeTHF), 25° C.; read-out: Solubility
parameterMeasured: solubility (µg/mL)
Answer with a number only, understood to be in µg/mL.

**Query** Any idea what its solubility is? The compound is O=S1(=O)CCN(Cc2cc(NC3CCOCC3)c3[nH]c(-c4ccccc4)cc3c2)CC1 [compound of Chemical Formula 1]
**Result** 2780

====

# experimentalDetails: Solubility test of sulfate (Crystalline form III) in various solvents
# Assay type: physicochemical
# conditionParameters: thermodynamic from solid; Water, 50° C.; read-out: Solubility
parameterMeasured: solubility

**Query** Any idea what its solubility is? The compound is O=S1(=O)CCN(Cc2cc(NC3CCOCC3)c3[nH]c(-c4ccccc4)cc3c2)CC1 [Sulfate]
**Result** < 2000 µg/mL
